Test system: B16 cells
Test: Growth of B16 cells (protein and DNA assay)
Format: cell-based, mouse
Details: 50% inhibition of growth
assay_readout: IC50 (µM)

[
  {
    "molecule": "CSC(=O)C#CC(C)(C)N(C)C [Example 1]",
    "unit_descriptor": "µM",
    "readout_number": 0.8
  }
]

----------
Tested on: BAF3 bcl2 cells
Assay: Growth of BAF3 bcl2 cells (viable cell count, Trypan blue)
Type: cell-based, murine
Details: Mus musculus, 50% inhibition of cell growth

[
  {
    "molecule": "CSC(=O)C#CC(C)(C)N1CCOCC1 [Example 5]",
    "unit_descriptor": "µM",
    "IC50": 12
  },
  {
    "molecule": "CCCN(CCC)C(C)(C)C#CC(=O)SC [Example 3]",
    "unit_descriptor": "µM",
    "IC50": 2.7
  }
]

Provenance of the data: patent US8026231B2
